Tested on: Tyrosine-protein kinase ABL1 (Homo sapiens), P00519 [E255K]
Sequence (P00519 whole entry E255K): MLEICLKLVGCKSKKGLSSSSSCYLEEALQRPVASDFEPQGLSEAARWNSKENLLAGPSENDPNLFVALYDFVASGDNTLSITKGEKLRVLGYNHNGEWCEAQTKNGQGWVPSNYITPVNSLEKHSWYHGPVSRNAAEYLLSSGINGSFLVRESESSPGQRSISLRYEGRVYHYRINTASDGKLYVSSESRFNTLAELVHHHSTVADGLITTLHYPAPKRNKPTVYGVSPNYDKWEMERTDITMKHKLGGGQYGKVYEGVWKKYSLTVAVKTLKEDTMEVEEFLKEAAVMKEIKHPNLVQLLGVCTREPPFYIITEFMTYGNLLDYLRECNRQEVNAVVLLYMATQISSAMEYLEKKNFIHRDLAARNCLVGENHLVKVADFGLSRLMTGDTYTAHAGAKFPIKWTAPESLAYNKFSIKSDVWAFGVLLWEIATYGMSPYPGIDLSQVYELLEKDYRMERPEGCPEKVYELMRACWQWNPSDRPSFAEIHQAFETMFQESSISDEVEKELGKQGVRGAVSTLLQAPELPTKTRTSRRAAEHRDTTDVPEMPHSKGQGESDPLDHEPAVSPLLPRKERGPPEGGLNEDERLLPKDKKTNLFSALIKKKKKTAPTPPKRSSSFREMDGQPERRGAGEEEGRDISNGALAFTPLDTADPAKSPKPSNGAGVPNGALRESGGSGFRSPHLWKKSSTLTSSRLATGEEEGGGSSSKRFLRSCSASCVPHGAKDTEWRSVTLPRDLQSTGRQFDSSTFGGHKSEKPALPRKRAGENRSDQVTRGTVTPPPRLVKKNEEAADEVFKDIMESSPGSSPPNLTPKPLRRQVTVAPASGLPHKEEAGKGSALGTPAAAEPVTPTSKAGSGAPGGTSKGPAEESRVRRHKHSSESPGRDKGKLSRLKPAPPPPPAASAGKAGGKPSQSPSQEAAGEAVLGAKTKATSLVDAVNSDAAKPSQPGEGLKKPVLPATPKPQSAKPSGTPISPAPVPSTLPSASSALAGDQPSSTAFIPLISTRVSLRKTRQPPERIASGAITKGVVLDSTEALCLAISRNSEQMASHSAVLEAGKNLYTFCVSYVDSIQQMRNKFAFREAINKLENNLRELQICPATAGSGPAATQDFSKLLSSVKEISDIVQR
measurement.context: at 1 µM
assay.readout: inhibition (%)
Give the value, in units of %, as a plain number.

Solved cases (5 shown):
N#Cc1c(NC(=O)CN2CCOCC2)sc2c1CCCC2 :: 4.25
Nc1ncc(-c2cccc(S(N)(=O)=O)c2)c2scc(-c3ccc(F)c(Cl)c3)c12 :: 84.7
Fc1cccc(COc2ccc(Nc3ncnc4sc(-c5ccco5)cc34)cc2Cl)c1 :: 3.39
CCCN(CCS(C)(=O)=O)Cc1ccc(-c2ccc3ncnc(Nc4ccc(OCc5cccc(F)c5)c(Cl)c4)c3c2)o1 :: 2.9
NS(=O)(=O)c1ccc(Nc2ncc(-c3ccccc3)o2)cc1 :: 17.8

Returns the measured inhibition for the input compound. Input: O=S(=O)(CCNCc1ccc(-c2ccc3ncnc(Nc4ccc(OCc5cccc(F)c5)c(Cl)c4)c3c2)o1)c1ccccc1
4.49

Returns the measured inhibition for the input compound. Input: CCN(CC)S(=O)(=O)c1ccc(OC)c(Nc2ncc(-c3ccccc3)o2)c1
28.2

Returns the measured inhibition for the input compound. Input: COc1cc2ncn(-c3cc(OCc4ccccc4C(F)(F)F)c(C(=O)N(C)C)s3)c2cc1OC
9.93

Returns the measured inhibition for the input compound. Input: CCOc1ccc2c(-c3ccnc(Nc4cccc(C(F)(F)F)c4)n3)cnn2n1
4.02

Returns the measured inhibition for the input compound. Input: COC(=O)Nc1nc2ccc(S(=O)(=O)c3ccc(NC(=O)Nc4cc(C(F)(F)F)ccc4F)cc3)cc2[nH]1
-0.55

Returns the measured inhibition for the input compound. Input: c1ccc(-c2nc3n(c2-c2ccc4c(c2)OCO4)CCC3)nc1
3.7

Returns the measured inhibition for the input compound. Input: Nc1nc(-c2cccc(Cl)c2)c(-c2ccc3ncccc3n2)s1
11.2

Returns the measured inhibition for the input compound. Input: COc1cc(N2CCN(C(C)C)CC2)ccc1Nc1nc(Nc2ccc(F)cc2C(N)=O)c2cc[nH]c2n1
1.64

Returns the measured inhibition for the input compound. Input: COc1ccc2c(-c3ccnc(Nc4cccc(OC(F)(F)F)c4)n3)cnn2n1
4.4

Returns the measured inhibition for the input compound. Input: NC(=O)c1sc(-n2cnc3ccc(C(F)(F)F)cc32)cc1OCc1ccccc1Br
2.1

Returns the measured inhibition for the input compound. Input: COc1ccc(-c2cc3c(N)ncnc3o2)cc1
5.63

Returns the measured inhibition for the input compound. Input: NS(=O)(=O)c1ccc(N/N=C2\C(=O)Nc3ccc4ncccc4c32)cc1
39.2

Returns the measured inhibition for the input compound. Input: COc1cc(/C=N/Nc2ncnc3[nH]ncc23)ccc1O
83.4

Returns the measured inhibition for the input compound. Input: c1ccc(COc2ccc(Nc3ncnc4ccc(-c5ccco5)cc34)cc2)cc1
0.29

Returns the measured inhibition for the input compound. Input: COc1ccc(CNC(=O)c2ccc(-c3cc(-c4nnc(C)o4)ccc3C)cc2)cc1
0.78

Returns the measured inhibition for the input compound. Input: COc1cccc(-n2ncc3c(N/N=C/c4ccc(F)cc4)ncnc32)c1
79.3

###

# inhibition listing for each entry below
target.under.test: G protein-coupled receptor kinase 6 (Homo sapiens);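 further: values are averaged percent inhibition of GRK6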
measurement.context: at 1 µM
Give the value, in units of %, as a plain number.

N#Cc1c(NC(=O)CN2CCOCC2)sc2c1CCCC2 :: 4.14
COc1cc2ncn(-c3cc(OCc4ccccc4C(F)(F)F)c(C(=O)N(C)C)s3)c2cc1OC :: 0.69
CC(=O)Nc1cccc(C#Cc2cncnc2Nc2ccc(OCc3cccc(F)c3)c(Cl)c2)c1 :: -1.5
O=C(O[C@H]1CN[C@H](C#Cc2cc3ncnc(Nc4ccc(Cc5ccccc5)cc4)c3s2)C1)N1CCOCC1 :: 1.46

Return inhibition measured with G protein-coupled receptor kinase 6 (Homo sapiens) given this compound: CS(=O)(=O)CCNCc1ccc(-c2ccc3ncnc(Nc4ccc(OCc5ccccc5)c(C(F)(F)F)c4)c3c2)o1
1.09

###

target.under.test: Non-receptor tyrosine-protein kinase TYK2 (Homo sapiens) (UniProt P29597);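 further: values are mean percent inhibition of TYK2 kinase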
Sequence (P29597 whole entry): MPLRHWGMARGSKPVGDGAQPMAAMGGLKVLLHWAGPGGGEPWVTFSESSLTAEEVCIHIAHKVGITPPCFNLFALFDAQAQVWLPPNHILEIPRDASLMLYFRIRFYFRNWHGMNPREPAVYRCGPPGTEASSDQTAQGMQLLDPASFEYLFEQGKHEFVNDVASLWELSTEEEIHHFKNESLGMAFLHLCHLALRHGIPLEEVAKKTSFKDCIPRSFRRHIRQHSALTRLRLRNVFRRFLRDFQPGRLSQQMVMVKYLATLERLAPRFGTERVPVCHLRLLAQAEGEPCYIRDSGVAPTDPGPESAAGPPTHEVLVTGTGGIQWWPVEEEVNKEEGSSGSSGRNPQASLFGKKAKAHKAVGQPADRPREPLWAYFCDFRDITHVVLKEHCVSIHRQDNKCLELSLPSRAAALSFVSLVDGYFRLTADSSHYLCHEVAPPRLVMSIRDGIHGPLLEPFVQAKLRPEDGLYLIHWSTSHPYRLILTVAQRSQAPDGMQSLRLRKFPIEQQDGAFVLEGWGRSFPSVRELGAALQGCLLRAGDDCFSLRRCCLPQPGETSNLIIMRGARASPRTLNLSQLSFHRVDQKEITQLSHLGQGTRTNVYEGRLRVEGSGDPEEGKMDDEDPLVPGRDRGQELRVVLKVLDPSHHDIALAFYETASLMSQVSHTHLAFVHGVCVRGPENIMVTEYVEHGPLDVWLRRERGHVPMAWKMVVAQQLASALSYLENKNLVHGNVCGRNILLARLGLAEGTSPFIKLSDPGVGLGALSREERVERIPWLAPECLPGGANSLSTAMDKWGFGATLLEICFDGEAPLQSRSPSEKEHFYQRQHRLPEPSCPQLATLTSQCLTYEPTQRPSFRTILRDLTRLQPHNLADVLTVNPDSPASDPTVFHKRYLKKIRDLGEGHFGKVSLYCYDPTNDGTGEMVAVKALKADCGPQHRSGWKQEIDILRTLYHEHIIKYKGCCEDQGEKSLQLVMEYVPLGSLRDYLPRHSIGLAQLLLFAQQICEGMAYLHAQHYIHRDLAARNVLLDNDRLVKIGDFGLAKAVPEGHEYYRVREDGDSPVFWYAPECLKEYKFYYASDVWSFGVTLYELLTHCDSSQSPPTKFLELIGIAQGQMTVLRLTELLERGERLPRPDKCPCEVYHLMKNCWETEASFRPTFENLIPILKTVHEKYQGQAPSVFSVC
measurement.context: at 1 µM
assay.readout: inhibition
State the value, then name its unit.

COc1cc2c(cc1Nc1nc(Nc3ccsc3C(N)=O)c3cc[nH]c3n1)N(C(=O)CN(C)C)CCC2(C)C :: -1.34%
CN1CCC(n2cnc(-c3ccc(F)cc3)c2-c2ccnc(Nc3ccccc3)n2)CC1 :: 0.82%
[O-][S+]1CCN(Cc2ccc(-c3ccc4ncnc(Nc5ccc(OCc6cccc(F)c6)c(Cl)c5)c4c3)o2)CC1 :: -4.3%
Cc1cccc(Nc2ncc(-c3ccccc3)o2)c1 :: -4.11%
COc1ccc(-c2oc3ncnc(N)c3c2-c2ccc(NC(=O)Nc3cc(C(F)(F)F)ccc3F)cc2)cc1 :: 0.14%

Returns the measured inhibition for the input compound. Input: NC(=O)c1sc(-n2cnc3ccc(C(F)(F)F)cc32)cc1OCc1ccccc1Br
-3.62%

Returns the measured inhibition for the input compound. Input: COc1ccc(-c2cc3c(N)ncnc3o2)cc1
3.74%

Returns the measured inhibition for the input compound. Input: c1ccc(COc2ccc(Nc3ncnc4ccc(-c5ccco5)cc34)cc2)cc1
-2.46%

###

# inhibition listing for each entry below
target.under.test: Cyclin-dependent kinase 2 (Homo sapiens) (UniProt P24941);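 further: mean inhibition measured against the CDK2/cyclin E complex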
measurement.context: at 1 µM
Give the value, in units of %, as a plain number.

COc1cccc(-c2c[nH]c3c(N/N=C/c4ccncc4)ncnc23)c1 :: 45.5

Returns the measured inhibition for the input compound. Input: CCCN1CCC(c2ccc(Nc3nc(Nc4cc(F)ccc4C(N)=O)c4cc[nH]c4n3)c(OC)c2)CC1
11.8

Returns the measured inhibition for the input compound. Input: COc1cc(/C=N/Nc2ncnc3[nH]ncc23)ccc1O
13.9

Returns the measured inhibition for the input compound. Input: N#Cc1c(NC(=O)CN2CCOCC2)sc2c1CCCC2
8.06

Returns the measured inhibition for the input compound. Input: CCn1c(-c2nonc2N)nc2cnc(Oc3cccc(NC(=O)c4ccc(N(C)C)cc4)c3)cc21
2.7

Returns the measured inhibition for the input compound. Input: Nc1nc(-c2cccc(Cl)c2)c(-c2ccc3ncccc3n2)s1
4.47

Returns the measured inhibition for the input compound. Input: CCN(CC)S(=O)(=O)c1ccc(OC)c(Nc2ncc(-c3ccccc3)o2)c1
3.61

Returns the measured inhibition for the input compound. Input: Fc1ccc(-c2nn3ccccc3c2-c2ccncc2)cc1
2.02

Returns the measured inhibition for the input compound. Input: CC(=O)Nc1cccc(C#Cc2cncnc2Nc2ccc(OCc3cccc(F)c3)c(Cl)c2)c1
0.87

Returns the measured inhibition for the input compound. Input: COc1cc(N2CCN(C(C)C)CC2)ccc1Nc1nc(Nc2ccc(F)cc2C(N)=O)c2cc[nH]c2n1
0.42

###

target.under.test: Tyrosine-protein kinase Fes/Fps (Homo sapiens)
measurement.context: at 0.1 µM
Description: GSK_PKIS: FES mean inhibition at 0.1 uM [Nanosyn]
# inhibition listing for each entry below
Give the value, in units of %, as a plain number.

CNC(=O)c1cc(-c2ccc(F)cc2)cc(-c2ccc(S(=O)(=O)N3CCCC3)cc2)c1N :: 2.25
c1ccc(COc2ccc(Nc3ncnc4ccc(-c5ccco5)cc34)cc2)cc1 :: 2.03
Cc1ccc2c(-c3ccnc(Nc4ccccc4)n3)c(-c3ccc(F)cc3)nn2n1 :: 2.61
COc1ccc(CNC(=O)c2ccc(-c3cc(-c4nnc(C)o4)ccc3C)cc2)cc1 :: 1.89
COc1cc(/C=N/Nc2ncnc3[nH]ncc23)ccc1O :: 2.22
CCc1nn2ncccc2c1-c1ccnc(NC2CC2)n1 :: 1.57

// next item, inhibition requested
Returns the measured inhibition for the input compound. Input: CC(C)(CO)CNC(=O)c1ccc2c(c1)/C(=N/Nc1ccc(S(N)(=O)=O)cc1)C(=O)N2
-0.1

###

target.under.test: Calcium/calmodulin-dependent protein kinase type IV (Homo sapiens);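 further: each value is a mean inhibition of CAMK4, part of the GSK PKIS kinase screening panel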
Sequence (whole entry): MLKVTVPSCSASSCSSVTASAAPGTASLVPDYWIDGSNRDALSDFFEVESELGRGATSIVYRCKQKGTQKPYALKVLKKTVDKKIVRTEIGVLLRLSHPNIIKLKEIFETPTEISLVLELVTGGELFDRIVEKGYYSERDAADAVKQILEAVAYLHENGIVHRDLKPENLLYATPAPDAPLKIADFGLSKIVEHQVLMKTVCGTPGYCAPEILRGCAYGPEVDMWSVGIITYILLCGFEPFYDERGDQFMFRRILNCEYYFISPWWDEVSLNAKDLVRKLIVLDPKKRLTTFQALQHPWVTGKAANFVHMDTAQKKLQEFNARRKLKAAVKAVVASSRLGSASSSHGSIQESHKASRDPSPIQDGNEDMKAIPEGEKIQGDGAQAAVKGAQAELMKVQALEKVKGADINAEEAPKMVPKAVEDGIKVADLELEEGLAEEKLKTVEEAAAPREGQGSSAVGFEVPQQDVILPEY
measurement.context: at 0.1 µM
assay.readout: inhibition (%)
Give the value, in units of %, as a plain number.

Solved cases (2 shown):
Cc1ccc2c(-c3ccnc(Nc4ccccc4)n3)c(-c3ccc(F)cc3)nn2n1 :: -0.02
c1ccc(COc2ccc(Nc3ncnc4ccc(-c5ccco5)cc34)cc2)cc1 :: 1.19

Return inhibition measured with Calcium/calmodulin-dependent protein kinase type IV (Homo sapiens) given this molecule: COC(=O)Nc1nc2ccc(S(=O)(=O)c3ccc(NC(=O)Nc4cc(C(F)(F)F)ccc4F)cc3)cc2[nH]1
-0.05

Return inhibition measured with Calcium/calmodulin-dependent protein kinase type IV (Homo sapiens) given this molecule: Cc1cccc(Nc2ncc(-c3ccccc3)o2)c1
1.87

Return inhibition measured with Calcium/calmodulin-dependent protein kinase type IV (Homo sapiens) given this molecule: Fc1ccc(-c2nn3ncccc3c2-c2ccnc(Nc3ccc4c(c3)OCCO4)n2)cc1
0.98

Return inhibition measured with Calcium/calmodulin-dependent protein kinase type IV (Homo sapiens) given this molecule: COc1cc2ncn(-c3cc(OCc4ccccc4C(F)(F)F)c(C(=O)N(C)C)s3)c2cc1OC
0.72

Return inhibition measured with Calcium/calmodulin-dependent protein kinase type IV (Homo sapiens) given this molecule: CCn1c(-c2nonc2N)nc2cnc(Oc3cccc(NC(=O)c4ccc(N(C)C)cc4)c3)cc21
0.01

Return inhibition measured with Calcium/calmodulin-dependent protein kinase type IV (Homo sapiens) given this molecule: COc1cccc(-c2c[nH]c3c(N/N=C/c4ccncc4)ncnc23)c1
1.55

Return inhibition measured with Calcium/calmodulin-dependent protein kinase type IV (Homo sapiens) given this molecule: COc1ccc(-c2nn3ncccc3c2-c2ccnc(Nc3ccc4c(c3)OCCO4)n2)cc1
1.75

Return inhibition measured with Calcium/calmodulin-dependent protein kinase type IV (Homo sapiens) given this molecule: c1cc(-c2cnn3nc(N4CCOCC4)ccc23)nc(NC2CC2)n1
1.3
